Provenance of the data: patent US20220195052A1

Assay target: T1, human αvβ1 integrin on cells (human, UniProt P06756 31-1048; P05556 21-798)
T1 construct: also called stably transfected human αvβ1 cells; αvβ1 on MRC9 human lung fibroblasts
T1 sequence (P06756 31-1048 limits assumed, chain 1 of 2): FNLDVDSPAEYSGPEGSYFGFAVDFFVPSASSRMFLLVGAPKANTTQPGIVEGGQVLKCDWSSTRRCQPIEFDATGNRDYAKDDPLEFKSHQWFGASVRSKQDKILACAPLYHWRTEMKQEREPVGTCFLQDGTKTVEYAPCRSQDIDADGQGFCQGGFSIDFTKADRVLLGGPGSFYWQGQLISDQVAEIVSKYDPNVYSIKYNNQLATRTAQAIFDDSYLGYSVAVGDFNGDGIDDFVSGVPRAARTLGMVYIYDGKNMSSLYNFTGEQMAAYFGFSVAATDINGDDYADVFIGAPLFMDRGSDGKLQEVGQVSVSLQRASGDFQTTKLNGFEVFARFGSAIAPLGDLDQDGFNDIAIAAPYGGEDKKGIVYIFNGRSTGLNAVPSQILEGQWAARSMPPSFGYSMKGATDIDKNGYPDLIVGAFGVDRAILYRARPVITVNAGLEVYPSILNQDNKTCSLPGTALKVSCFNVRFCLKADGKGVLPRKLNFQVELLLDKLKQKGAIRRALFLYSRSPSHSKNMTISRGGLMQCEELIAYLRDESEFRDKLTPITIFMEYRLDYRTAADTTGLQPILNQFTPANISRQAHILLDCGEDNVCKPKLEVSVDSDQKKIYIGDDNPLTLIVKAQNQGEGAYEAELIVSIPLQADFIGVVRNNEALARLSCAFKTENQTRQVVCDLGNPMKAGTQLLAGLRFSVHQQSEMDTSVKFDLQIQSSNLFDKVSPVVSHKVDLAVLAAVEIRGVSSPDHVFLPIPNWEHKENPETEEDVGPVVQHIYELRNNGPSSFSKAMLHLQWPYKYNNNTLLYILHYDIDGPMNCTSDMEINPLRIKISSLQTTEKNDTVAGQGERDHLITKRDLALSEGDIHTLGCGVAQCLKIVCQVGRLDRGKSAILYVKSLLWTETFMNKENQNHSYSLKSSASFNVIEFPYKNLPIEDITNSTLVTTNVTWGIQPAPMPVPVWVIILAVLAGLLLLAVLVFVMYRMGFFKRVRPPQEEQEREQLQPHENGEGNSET
T1 sequence (P05556 21-798 limits assumed, chain 2 of 2): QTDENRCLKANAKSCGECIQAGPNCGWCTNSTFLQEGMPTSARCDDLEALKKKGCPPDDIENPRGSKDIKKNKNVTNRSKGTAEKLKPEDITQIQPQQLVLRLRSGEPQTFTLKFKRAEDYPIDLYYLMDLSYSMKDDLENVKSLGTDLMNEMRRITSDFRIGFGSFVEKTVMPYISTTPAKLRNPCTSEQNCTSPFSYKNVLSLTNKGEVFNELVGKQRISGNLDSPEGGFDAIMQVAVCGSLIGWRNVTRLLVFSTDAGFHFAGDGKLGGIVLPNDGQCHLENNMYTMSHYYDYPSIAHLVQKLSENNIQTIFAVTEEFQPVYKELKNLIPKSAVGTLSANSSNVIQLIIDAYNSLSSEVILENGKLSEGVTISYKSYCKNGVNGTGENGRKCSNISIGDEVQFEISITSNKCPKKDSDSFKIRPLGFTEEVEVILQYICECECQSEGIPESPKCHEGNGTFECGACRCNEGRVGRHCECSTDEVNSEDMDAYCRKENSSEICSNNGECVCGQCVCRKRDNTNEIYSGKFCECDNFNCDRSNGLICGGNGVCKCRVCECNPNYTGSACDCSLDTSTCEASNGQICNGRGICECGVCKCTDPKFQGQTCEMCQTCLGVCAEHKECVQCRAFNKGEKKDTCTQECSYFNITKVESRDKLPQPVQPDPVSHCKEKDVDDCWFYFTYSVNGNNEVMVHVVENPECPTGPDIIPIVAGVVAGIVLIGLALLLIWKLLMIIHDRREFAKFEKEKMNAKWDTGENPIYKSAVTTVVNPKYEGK
Assay summary: inhibition of adhesion of BCECF-labelled αvβ1-transfected cells to plate-coated LAP
Metric: IC50 (nM)
The answer is to be given in nM; state only the numeric part.

Binder	IC50 / nM
Exemplary Antibody 4 (antibody, V domains shown, expressed in yeast (Adimab platform) and purified on protein A; also called Ex. Ab 4) VH: QVQLVESGGGLVQPGGSLRLSCAASGFTFTSYYMHWVRQAPGQGLEWMGIINPSGGSTSYAQKFQGRVTMTRDTSTSTVYMELSSLRSEDTAVYYCARQQRHRRDYDYYYGMDVWGQGTTVTVSS VL: EIVLTQSPGTLSLSPGERATLSCRASQSVSSDYLAWYQQKPGQAPRLLIYGASRRATGIPDRFSGSGSGTDFTLTISRLEPEDFAVYYCQQAYSLPPTFGGGTKVEIK	2.8

// below: IC50 requested for another binder
Quick check: IC50 of Exemplary Antibody 20 (antibody, V domains shown, expressed in yeast (Adimab platform) and purified on protein A; also called Ex. Ab 20) VH: QVQLVESGGGLVKPGGSLRLSCAASGFTFSDYYMSWIRQAPGKGLEWVSYISSSGSTIYYADSVKGRFTISRDNAKNSLYLQMNSLRAEDTAVYYCARGGPSRGDALAEYFQHWGQGTTVTVSS VL: EIVLTQSPATLSLSPGERATLSCRASQSVSRYLAWYQQKPGQAPRLLIYDASNRATGIPARFSGSGSGTDFTLTISSLEPEDFAVYYCQQLSLHPPYTFGGGTKVEIK ?
1
